Each entry below lists one item and its recorded [35S]GTPγS IC50 (GRO-α) value.
Target: T1, Human CXCR2 (human, UniProt P25025 1-360)
T1 sequence: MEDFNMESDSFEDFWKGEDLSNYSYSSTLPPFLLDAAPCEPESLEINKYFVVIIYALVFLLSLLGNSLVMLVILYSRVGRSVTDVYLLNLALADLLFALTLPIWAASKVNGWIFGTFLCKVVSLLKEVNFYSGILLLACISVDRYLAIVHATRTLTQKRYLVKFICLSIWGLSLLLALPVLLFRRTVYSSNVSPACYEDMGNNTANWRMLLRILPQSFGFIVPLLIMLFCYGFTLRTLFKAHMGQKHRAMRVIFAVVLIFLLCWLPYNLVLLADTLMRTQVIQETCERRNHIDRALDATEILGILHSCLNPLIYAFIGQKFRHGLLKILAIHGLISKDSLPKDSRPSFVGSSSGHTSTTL
Experiment: cell-based or functional assay
Expressed in nM, but write only the number.

Check out these entries, answers already filled in.
CXCR20020 (bispecific antibody, Biparatopic: two VHH joined by a GlySer linker; also called 127D1-35GS-163D2; 127D1-163D2; not shown: C-terminal c-myc tag and His6 tag coded by pAX100) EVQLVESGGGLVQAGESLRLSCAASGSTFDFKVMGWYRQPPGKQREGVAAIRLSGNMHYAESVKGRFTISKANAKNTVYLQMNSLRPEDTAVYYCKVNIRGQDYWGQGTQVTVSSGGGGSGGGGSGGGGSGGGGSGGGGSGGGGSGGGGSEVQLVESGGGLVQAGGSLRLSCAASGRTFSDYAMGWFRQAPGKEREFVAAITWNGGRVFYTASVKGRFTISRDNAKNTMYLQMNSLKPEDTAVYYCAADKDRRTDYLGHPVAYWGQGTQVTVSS
0.634
CXCR20022 (VHH, Bivalent: two VHH joined by a GlySer linker; also called 163D2-35GS-163D2; not shown: C-terminal c-myc tag and His6 tag coded by pAX100) EVQLVESGGGLVQAGGSLRLSCAASGRTFSDYAMGWFRQAPGKEREFVAAITWNGGRVFYTASVKGRFTISRDNAKNTMYLQMNSLKPEDTAVYYCAADKDRRTDYLGHPVAYWGQGTQVTVSSGGGGSGGGGSGGGGSGGGGSGGGGSGGGGSGGGGSEVQLVESGGGLVQAGGSLRLSCAASGRTFSDYAMGWFRQAPGKEREFVAAITWNGGRVFYTASVKGRFTISRDNAKNTMYLQMNSLKPEDTAVYYCAADKDRRTDYLGHPVAYWGQGTQVTVSS
28.5

[35S]GTPγS IC50 (GRO-α) measured on CXCR20024 (VHH, Bivalent: two VHH joined by a GlySer linker; also called 163E3-35GS-163E3; not shown: C-terminal c-myc tag and His6 tag coded by pAX100) EVQLVESGGGLVQPGGSLRLSCVASGRIFSSNAMGWFRQAPGKEREFVAAITWRSGGSAYYADSAKGRFTISRDNAKNTVYLQMNSLKPEDTAVYYCAAGGSSWLSFPPDYWGQGTQVTVSSGGGGSGGGGSGGGGSGGGGSGGGGSGGGGSGGGGSEVQLVESGGGLVQPGGSLRLSCVASGRIFSSNAMGWFRQAPGKEREFVAAITWRSGGSAYYADSAKGRFTISRDNAKNTVYLQMNSLKPEDTAVYYCAAGGSSWLSFPPDYWGQGTQVTVSS = 30.3
